system: HepG2; experiment: cells; details: Homo sapiens, HepG2, 48 h
METRIC: IC50 (µM)
Just the number in µM, nothing appended.

Input: Query for HepG2: what IC50 does the record show for Oc1ccc(/C=N/Nc2nc3ccccc3c3nncn23)cc1 ?
Output: 4.43

---

tested on: HepG2; assay: cells; conditions: Homo sapiens, HepG2, 24 h
METRIC: IC50 (µM)
Just the number in µM, nothing appended.

Input: Any idea what IC50 was measured for O=C(N/N=C/c1ccccc1O)c1ccc(Nc2nc3ccccc3c3nncn23)cc1 ?
Output: 7.42

Input: Any idea what IC50 was measured for O=C(N/N=C/c1c(Cl)cccc1Cl)c1ccc(Nc2nc3ccccc3c3nncn23)cc1 ?
Output: 5.42

Input: Any idea what IC50 was measured for O=C(N/N=C/c1ccccc1Cl)c1ccc(Nc2nc3ccccc3c3nncn23)cc1 ?
Output: 4.88

Input: Any idea what IC50 was measured for O=C(N/N=C/c1ccc(Cl)cc1)c1ccc(Nc2nc3ccccc3c3nncn23)cc1 ?
Output: 8.64

Input: Any idea what IC50 was measured for CN(C)c1ccc(/C=N/NC(=O)c2ccc(Nc3nc4ccccc4c4nncn34)cc2)cc1 ?
Output: 7.91

---

tested on: HepG2; assay: cells; conditions: Homo sapiens
METRIC: pIC50
// returns pIC50 (minus log10 of molar concentration), number only

Input: Any idea what pIC50 was measured for O=C(NNc1nc2ccccc2c2nncn12)NC1CCCCC1 ?
Output: 5.10

---

Task for the reader: assign each of the following compounds its reported pIC50.
test system: HepG2; test: cells; conditions: Homo sapiens, HepG2, 48 h
// returns pIC50 (minus log10 of molar concentration), number only

Input: Any idea what pIC50 was measured for Cc1ccc(C2CC(c3ccc(Nc4nc5ccccc5c5nncn45)cc3)=NN2)cc1 (centres undefined) ?
Output: 4.79

Input: Any idea what pIC50 was measured for COc1ccc(C2CC(c3ccc(Nc4nc5ccccc5c5nncn45)cc3)=NN2)cc1 (centres undefined) ?
Output: 4.79

Input: Any idea what pIC50 was measured for COc1cccc2c1C(=O)c1c(O)c3c(c(O)c1C2=O)C[C@@](O)(C(=O)CO)C[C@@H]3O[C@H]1C[C@H](N)[C@H](O)[C@H](C)O1 ?
Output: 5.10

Input: Any idea what pIC50 was measured for c1ccc(C2CC(c3ccc(Nc4nc5ccccc5c5nncn45)cc3)=NN2)cc1 (centres undefined) ?
Output: 4.79

---

Here's what we have: IC50 numbers for DNA.
Could you kindly put the unit after your number?

Input: Any idea what IC50 was measured for S=C(NNc1nc2ccccc2c2nncn12)NC1CCCCC1 ?
Output: 48.1 µM

Input: Any idea what IC50 was measured for COc1cccc2c1C(=O)c1c(O)c3c(c(O)c1C2=O)C[C@@](O)(C(=O)CO)C[C@@H]3O[C@H]1C[C@H](N)[C@H](O)[C@H](C)O1 [DOXORUBICIN] ?
Output: 31.3 µM

Input: Any idea what IC50 was measured for O=C(NNc1nc2ccccc2c2nncn12)NC1CCCCC1 ?
Output: 42.9 µM
